The reported measurements were obtained from ChEMBL document CHEMBL4342459.

biological target: Sodium/glucose cotransporter 2 (Homo sapiens, UniProt P31639); assay: Inhibition of SGLT2 (unknown origin)
Sequence (P31639 whole entry): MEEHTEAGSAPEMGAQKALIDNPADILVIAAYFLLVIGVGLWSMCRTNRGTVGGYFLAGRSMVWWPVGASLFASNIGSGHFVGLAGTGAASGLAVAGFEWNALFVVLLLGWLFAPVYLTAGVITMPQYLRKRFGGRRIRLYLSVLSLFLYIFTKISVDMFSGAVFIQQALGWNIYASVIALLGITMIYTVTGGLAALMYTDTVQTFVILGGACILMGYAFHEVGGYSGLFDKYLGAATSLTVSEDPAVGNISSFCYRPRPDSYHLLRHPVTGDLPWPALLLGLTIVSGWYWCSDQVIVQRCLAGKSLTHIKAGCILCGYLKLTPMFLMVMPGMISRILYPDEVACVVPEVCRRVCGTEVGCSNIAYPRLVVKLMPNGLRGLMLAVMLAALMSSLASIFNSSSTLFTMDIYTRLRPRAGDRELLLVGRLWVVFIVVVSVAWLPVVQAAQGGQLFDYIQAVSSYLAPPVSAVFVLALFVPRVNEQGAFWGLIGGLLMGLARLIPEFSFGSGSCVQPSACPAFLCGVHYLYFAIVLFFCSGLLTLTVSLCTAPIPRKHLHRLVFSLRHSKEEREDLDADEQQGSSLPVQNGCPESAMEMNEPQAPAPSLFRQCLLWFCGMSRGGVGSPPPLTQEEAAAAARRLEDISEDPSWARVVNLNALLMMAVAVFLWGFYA
Property Name: EC50 (nM)
Numbers only here, please. The scale is nM.

Example cases with answers are listed next.
| Molecule | Target | EC50 / nM |
| --- | --- | --- |
| CCc1ccc(Cc2cccc([C@@H]3O[C@H](CO)[C@@H](O)[C@H](O)[C@H]3O)c2)cc1 | Sodium/glucose cotransporter 2 (Homo sapiens, UniProt P31639) | 5 |
| CCOc1ccc(Cc2cc([C@@H]3S[C@H](CO)[C@@H](O)[C@H](O)[C@H]3O)c(OC)cc2C)cc1 [LUSEOGLIFLOZIN] | Sodium/glucose cotransporter 2 (Homo sapiens, UniProt P31639) | 2.3 |
| OC[C@H]1O[C@@H](c2ccc(F)c(Cc3cc4ccccc4s3)c2)[C@H](O)[C@@H](O)[C@@H]1O [IPRAGLIFLOZIN] | Sodium/glucose cotransporter 2 (Homo sapiens, UniProt P31639) | 7.4 |
| OC[C@H]1O[C@@H](c2ccc(Cl)c(Cc3ccc(O[C@H]4CCOC4)cc3)c2)[C@H](O)[C@@H](O)[C@@H]1O [EMPAGLIFLOZIN] | Sodium/glucose cotransporter 2 (Homo sapiens, UniProt P31639) | 3 |

INPUT: Field: EC50 (Sodium/glucose cotransporter 2 (Homo sapiens, UniProt P31639)). Entry: Cc1ccc([C@@H]2O[C@H](CO)[C@@H](O)[C@H](O)[C@H]2O)cc1Cc1ccc(-c2ccc(F)cc2)s1 [CANAGLIFLOZIN ANHYDROUS]
OUTPUT: 2.2
